Here the recorded kon is given for each entry.
- TEST_TARGET: T1, human GFRα3 expressed with a C-terminal mFc tag (human)
- T1 construct: also called hGFRα3-mFc
- T1 chain: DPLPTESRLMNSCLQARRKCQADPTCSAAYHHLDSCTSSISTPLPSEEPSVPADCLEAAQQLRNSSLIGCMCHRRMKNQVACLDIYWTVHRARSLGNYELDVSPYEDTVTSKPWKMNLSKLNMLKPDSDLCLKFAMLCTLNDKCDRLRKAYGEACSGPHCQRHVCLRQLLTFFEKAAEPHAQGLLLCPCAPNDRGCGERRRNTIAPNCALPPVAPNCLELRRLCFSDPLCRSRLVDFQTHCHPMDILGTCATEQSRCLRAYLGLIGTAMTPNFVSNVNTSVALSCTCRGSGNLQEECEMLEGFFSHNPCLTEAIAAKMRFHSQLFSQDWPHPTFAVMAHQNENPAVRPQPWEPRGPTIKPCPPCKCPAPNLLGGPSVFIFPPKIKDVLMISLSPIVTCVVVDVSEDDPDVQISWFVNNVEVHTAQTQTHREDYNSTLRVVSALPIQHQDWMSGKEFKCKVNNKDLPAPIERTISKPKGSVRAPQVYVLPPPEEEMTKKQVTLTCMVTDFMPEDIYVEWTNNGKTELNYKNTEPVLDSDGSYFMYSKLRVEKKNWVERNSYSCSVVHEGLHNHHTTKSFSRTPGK
- MEASUREMENT_PROTOCOL: SPR, Ab captured, 25C
Supply the numeric figure in M⁻¹ s⁻¹, leaving out any unit text.

H4H2364S (antibody, human IgG4, V domains shown, human IgG4 Fc (H4H)) VH: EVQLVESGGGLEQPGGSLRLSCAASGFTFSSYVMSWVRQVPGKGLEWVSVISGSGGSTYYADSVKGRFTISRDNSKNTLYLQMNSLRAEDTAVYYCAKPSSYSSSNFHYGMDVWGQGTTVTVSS VL: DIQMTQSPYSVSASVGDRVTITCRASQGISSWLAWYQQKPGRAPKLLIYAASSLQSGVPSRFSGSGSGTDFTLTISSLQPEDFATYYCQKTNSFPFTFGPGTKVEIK ... 771000

Shifting focus to the binder that follows.
Task item: For H4H2350P (antibody, human IgG4, V domains shown, human IgG4 Fc (H4H)) VH: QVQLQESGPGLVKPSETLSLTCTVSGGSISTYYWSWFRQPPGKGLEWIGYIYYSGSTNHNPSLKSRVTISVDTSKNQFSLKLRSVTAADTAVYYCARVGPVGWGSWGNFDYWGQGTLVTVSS VL: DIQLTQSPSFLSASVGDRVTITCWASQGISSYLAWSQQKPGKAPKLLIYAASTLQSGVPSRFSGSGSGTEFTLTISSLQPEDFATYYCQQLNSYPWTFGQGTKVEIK , what is its reported kon?
Reply: 509000
